Assay: Cytotoxicity against mouse RAW264.7 cells assessed as reduction in cell viability after 24 hrs by CCK8 assay
Format: cell-based
Recorded metric: CC50 at 24 h

C=C(C(=O)OCCCC)[C@@H]1CC[C@@](C)(O)[C@H](O)CC/C(C)=C/CC[C@]2(C)O[C@H]2C1 > 50 µM
C=C(C(=O)OCCCC)[C@@H]1CC[C@@](C)(O)[C@@H]2CC[C@](C)(O2)[C@@H](OC(C)=O)CC[C@]2(C)O[C@H]2C1 > 50 µM

Pending molecule:
Request the reported CC50 at 24 h associated with C=C(C(=O)OC)[C@H]1CC[C@@]2(C)O[C@@H]2CC/C(C)=C/CC[C@@]2(C)O[C@H]2C1 > 50 µM

###

Experiment: Selectivity index, ratio of CC50 for mouse RAW264.7 cells to IC50 for inhibition of LPS-induced TNFalpha production in mouse RAW264.7 cells
Type: toxicity, cell-based
Conditions: read-out: Ratio CC50/IC50
Recorded metric: selectivity ratio

Worked set:
Molecule	selectivity ratio
C=C(C(=O)OCCCC)[C@@H]1CC[C@@](C)(O)[C@@H]2CC[C@](C)(O2)[C@@H](OC(C)=O)CC[C@]2(C)O[C@H]2C1	> 2.4
C=C(C(=O)OC)[C@H]1CC[C@@]2(C)O[C@@H]2CC/C(C)=C/CC[C@@]2(C)O[C@H]2C1	> 11.9
C=C1C(=O)O[C@]2(C)CC[C@@H]1C[C@@H]1O[C@@]1(C)CC/C=C(\C)CC[C@H]2OC(C)=O	> 18.5
C=C(C(=O)OCCCC)[C@H]1CC[C@](C)(O)C(=O)CC/C(C)=C/CC[C@]2(C)O[C@@H]2C1	> 1.3
C=C(C(=O)OC)[C@H]1CC[C@](C)(O)C(=O)CC/C(C)=C/CC[C@]2(C)O[C@@H]2C1	> 3.8

Could you share which selectivity ratio value was measured for C[C@@H]1C[C@H]2[C@@H]3CCC4=CC(=O)C=C[C@]4(C)[C@@]3(F)[C@@H](O)C[C@]2(C)[C@@]1(O)C(=O)CO [DEXAMETHASONE] ? > 5.7

Quick one: selectivity ratio for C=C1C(=O)O[C@]2(C)CC[C@@H]1C[C@@H]1O[C@@]1(C)CC/C=C(\C)CC[C@@H]2O [SINULARIOLIDE] ? > 10.6

###

The entries below are paired with their reported pIC50.
System: CAPAN-1
Test: Cytotoxicity against human Capan1 cells after 48 hrs by sulforhodamine B assay
Format: functional, cell-based
Details: CAPAN-1, 48 h
Answer as the number alone; pIC50 is minus log10 of concentration in mol/L.

Compound	pIC50
C=C1C(=O)O[C@]2(C)CC[C@@H]1C[C@@H]1O[C@@]1(C)CC/C=C(\C)CC[C@@H]2O [SINULARIOLIDE]	4.58
C=C1C(=O)O[C@]2(C)CC[C@@H]1C[C@@H]1O[C@@]1(C)CC/C=C(\C)CCC2=O	5.03

Could you now look at the following compound, please?
I'd like to know its pIC50. The compound in question is C=C1C(=O)O[C@]2(C)CC[C@@H]1C[C@@H]1O[C@@]1(C)CC/C=C(\C)CC[C@H]2OC(C)=O 4.54
